test system: D. magna; details: D. magna, 1 mg L^–1 nominal, ku/kd
readout: BCF in vivo (dynamic BCF)

A selection of reference data follows.
1) COc1ccc2cc([C@H](C)C(=O)O)ccc2c1 [naproxen, reference compound] = 1.5 ± 0.6 L kg^–1, w.w.
2) C[C@H](C(=O)O)c1ccc2cc(O)ccc2c1 = 0 L kg^–1, w.w.
3) O=C1CN=C(c2ccccc2)c2cc(Cl)ccc2N1 [DM-diazepam, reference compound] = 9.8 ± 0.3 L kg^–1, w.w.

Inquiry: Need BCF in vivo (dynamic BCF) of COC(=O)c1ccc(O)cc1 , thanks.
Reply text: 2.8 ± 0.2 L kg^–1, w.w.

Inquiry: Check CN1C(=O)CN=C(c2ccccc2)c2cc(Cl)ccc21 [diazepam, reference compound] too.
Reply text: 9.0 ± 0.4 L kg^–1, w.w.

---

system: D. magna; settings: D. magna, 24 h uptake phase
The reader will find reported ku (uptake rate constant) values listed item by item below.
API: value field is a number in L/h/kg; no unit string.

A selection of reference data follows.
1) COc1ccc(NC(C)=O)cc1 [M-acetaminophen] = 17.3
2) O=C(O)c1ccc(O)cc1 [DM-methylparaben] = 0.3
3) COC(=O)c1ccc(O)cc1 [methylparaben] = 0.7
4) O=C1CN=C(c2ccccc2)c2cc(Cl)ccc2N1 [DM-diazepam, reference compound] = 1.2

Proceed to the following item.
Inquiry: Need ku (uptake rate constant) of CC(=O)Nc1ccc(O)cc1 [acetaminophen, reference compound] , thanks.
Reply text: 0.2

---

The reader will find reported BCF in vivo (dynamic BCF) values listed item by item below.
test system: D. magna; details: D. magna, 1 mg L^–1 nominal, ku/kd

1. O=C(O)c1ccc(O)cc1 = 0.9 ± 0.5 L kg^–1, w.w.
2. COc1ccc(NC(C)=O)cc1 = 10.0 ± 0.0 L kg^–1, w.w.

Proceed to the following item.
Inquiry: Query BCF in vivo (dynamic BCF) on D. magna for CC(=O)Nc1ccc(O)cc1 [acetaminophen, reference compound]
Reply text: 0.3 ± 0.0 L kg^–1, w.w.

---

The reader will find reported half-life values listed item by item below.
assay: in vivo; details: whole D. magna (wet weight), 1 mg L^–1, pH 8.5
API: value field is a number in h; no unit string.

1) COc1ccc(NC(C)=O)cc1 = 0.4
2) COC(=O)c1ccc(O)cc1 = 2.7
3) CC(=O)Nc1ccc(O)cc1 [acetaminophen, reference compound] = 1

Proceed to the following item.
Inquiry: Need half-life of O=C(O)c1ccc(O)cc1 , thanks.
Reply text: 2.2

---

test: in vivo; conditions: Daphnia magna, other: waterborne exposure in the test medium
readout: LC50 at 48 h
Answer format: value, then unit.

Inquiry: Need LC50 at 48 h of CC(=O)Nc1ccc(O)cc1 [acetaminophen, reference compound] , thanks.
Reply text: 21.2 µg/mL

---

assay: in vivo; conditions: Daphnia magna
The reader will find reported LC50 at 48 h values listed item by item below.
API: value field is a number in µg/mL; no unit string.

1) O=C(O)c1ccc(O)cc1 [DM-methylparaben] = 226

Inquiry: Need LC50 at 48 h of COC(=O)c1ccc(O)cc1 [methylparaben] , thanks.
Reply text: 34.4

Inquiry: Check C[C@H](C(=O)O)c1ccc2cc(O)ccc2c1 [DM-naproxen] too.
Reply text: 67.9

Inquiry: Check COc1ccc(NC(C)=O)cc1 [M-acetaminophen] too.
Reply text: 32.1

---

settings: pH 8.50, calculated
The reader will find reported fn (neutral fraction) values listed item by item below.
Keep it simple and answer with nothing but the number.

A selection of reference data follows.
1. C[C@H](C(=O)O)c1ccc2cc(O)ccc2c1 = 0
2. O=C(O)c1ccc(O)cc1 = 0
3. CN1C(=O)CN=C(c2ccccc2)c2cc(Cl)ccc21 [diazepam, reference compound] = 1
4. COC(=O)c1ccc(O)cc1 = 0.41
5. CC(=O)Nc1ccc(O)cc1 [acetaminophen, reference compound] = 0.9
6. COc1ccc(NC(C)=O)cc1 = 1

Inquiry: Need fn (neutral fraction) of O=C1CN=C(c2ccccc2)c2cc(Cl)ccc2N1 [DM-diazepam, reference compound] , thanks.
Reply text: 1

These entries and their values trace back to paper PMC10569044.
